Tested on: 22Rv1 tumor-bearing mice
Assay: Biodistribution in 22Rv1 tumor-bearing mice
Conditions: 60 min p.i., 0.74 MBq, n = 3
Description: The animal studies were approved by the institutional animal care and use committee of the Chinese PLA General Hospital. Healthy male ICR mice were injected with either a novel radiotracer (37 MBq in 150 μL) or saline (150 μL) for the radiotoxicity evaluation. […] […] (10 min, 30 min, 60 min), tumors and interested organs were harvested, weighed and measured by a γ-counter, the results were expressed as the percentage of injected dose per gram (ID%/g). […]

{"COMPOUND": "O=C([O-])CN1CCN(CC(=O)[O-])CCN(CC(=O)NCCCCC(=O)NC(Cc2cnc3ccccc3c2)C(=O)NCCCCC(NC(=O)NC(CCC(=O)O)C(=O)O)C(=O)O)CCN(CC(=O)O)CC1.[68Ga+3] (stereo not drawn) [[^68Ga]Ga-PSMA-Q-1]", "TGT": "22Rv1 tumor-bearing mice", "Uptake Heart, Mean / ID%/g": 0.54}
{"COMPOUND": "O=C([O-])CN1CCN(CC(=O)[O-])CCN(CC(=O)NCC2CCC(C(=O)NC(Cc3ccc4ccccc4c3)C(=O)NCCCCC(NC(=O)NC(CCC(=O)O)C(=O)O)C(=O)O)CC2)CCN(CC(=O)O)CC1.[68Ga+3] (stereo not drawn) [[^68Ga]Ga-PSMA-617, reference compound]", "TGT": "22Rv1 tumor-bearing mice", "Uptake Heart, Mean / ID%/g": 0.10}
{"COMPOUND": "O=C([O-])CN1CCN(CC(=O)[O-])CCN(CC(=O)NCC2CCC(C(=O)NC(Cc3ccncc3)C(=O)NCCCCC(NC(=O)NC(CCC(=O)O)C(=O)O)C(=O)O)CC2)CCN(CC(=O)O)CC1.[68Ga+3] (stereo not drawn) [[^68Ga]Ga-PSMA-4PY]", "TGT": "22Rv1 tumor-bearing mice", "Uptake Heart, Mean / ID%/g": 0.58}

###

Tested on: 22Rv1 tumors
Assay: Micro-PET imaging in 22Rv1 tumor-bearing mice
Type: in vivo
Settings: 22Rv1 tumor, 60 min p.i., 7.4 MBq
Note to self: SUVmax of tumor under 0.8 means fulfilled, ties and anything higher get not fulfilled.

{"MOLECULE": "O=C([O-])CN1CCN(CC(=O)[O-])CCN(CC(=O)NCC2CCC(C(=O)NC(Cc3ccncc3)C(=O)NCCCCC(NC(=O)NC(CCC(=O)O)C(=O)O)C(=O)O)CC2)CCN(CC(=O)O)CC1.[68Ga+3] (centres unmarked) [[^68Ga]Ga-PSMA-4PY]", "CLASS_ASSIGNMENT": "fulfilled"}
{"MOLECULE": "O=C([O-])CN1CCN(CC(=O)[O-])CCN(CC(=O)NCCCCCC(=O)NC(Cc2cnc3ccccc3c2)C(=O)NCCCCC(NC(=O)NC(CCC(=O)O)C(=O)O)C(=O)O)CCN(CC(=O)O)CC1.[68Ga+3] (centres unmarked) [[^68Ga]Ga-PSMA-Q-2]", "CLASS_ASSIGNMENT": "fulfilled"}
{"MOLECULE": "O=C([O-])CN1CCN(CC(=O)[O-])CCN(CC(=O)NCC2CCC(C(=O)NC(Cc3cnc4ccccc4c3)C(=O)NCCCCC(NC(=O)NC(CCC(=O)O)C(=O)O)C(=O)O)CC2)CCN(CC(=O)O)CC1.[68Ga+3] (centres unmarked) [[^68Ga]Ga-PSMA-Q]", "CLASS_ASSIGNMENT": "not fulfilled"}
{"MOLECULE": "O=C([O-])CN1CCN(CC(=O)[O-])CCN(CC(=O)NCCCCC(=O)NC(Cc2cnc3ccccc3c2)C(=O)NCCCCC(NC(=O)NC(CCC(=O)O)C(=O)O)C(=O)O)CCN(CC(=O)O)CC1.[68Ga+3] (centres unmarked) [[^68Ga]Ga-PSMA-Q-1]", "CLASS_ASSIGNMENT": "not fulfilled"}
{"MOLECULE": "O=C([O-])CN1CCN(CC(=O)[O-])CCN(CC(=O)NCC2CCC(C(=O)NC(Cc3ccc4ccccc4c3)C(=O)NCCCCC(NC(=O)NC(CCC(=O)O)C(=O)O)C(=O)O)CC2)CCN(CC(=O)O)CC1.[68Ga+3] (centres unmarked) [[^68Ga]Ga-PSMA-617, reference compound]", "CLASS_ASSIGNMENT": "not fulfilled"}

###

Tested on: 22Rv1 tumor-bearing mice
Assay: Biodistribution in 22Rv1 tumor-bearing mice
Conditions: 30 min p.i., 0.74 MBq, n = 3

{"MOLECULE": "O=C([O-])CN(CCN(CC(=O)[O-])Cc1cc(CCC(=O)NCCCCCC(=O)NCCCC[C@H](NC(=O)N[C@@H](CCC(=O)O)C(=O)O)C(=O)O)ccc1[O-])Cc1cc(CCC(=O)O)ccc1[O-].[68Ga+3].[OH3+] [[^68Ga]Ga-PSMA-11, reference compound]", "Uptake Lung, Mean / ID%/g": 0.53}
{"MOLECULE": "O=C([O-])CN1CCN(CC(=O)[O-])CCN(CC(=O)NCCCCCC(=O)NC(Cc2cnc3ccccc3c2)C(=O)NCCCCC(NC(=O)NC(CCC(=O)O)C(=O)O)C(=O)O)CCN(CC(=O)O)CC1.[68Ga+3] (stereo not shown) [[^68Ga]Ga-PSMA-Q-2]", "Uptake Lung, Mean / ID%/g": 0.61}
{"MOLECULE": "O=C([O-])CN1CCN(CC(=O)[O-])CCN(CC(=O)NCC2CCC(C(=O)NC(Cc3ccncc3)C(=O)NCCCCC(NC(=O)NC(CCC(=O)O)C(=O)O)C(=O)O)CC2)CCN(CC(=O)O)CC1.[68Ga+3] (stereo not shown) [[^68Ga]Ga-PSMA-4PY]", "Uptake Lung, Mean / ID%/g": 0.50}
{"MOLECULE": "O=C([O-])CN1CCN(CC(=O)[O-])CCN(CC(=O)NCC2CCC(C(=O)NC(Cc3cnc4ccccc4c3)C(=O)NCCCCC(NC(=O)NC(CCC(=O)O)C(=O)O)C(=O)O)CC2)CCN(CC(=O)O)CC1.[68Ga+3] (stereo not shown) [[^68Ga]Ga-PSMA-Q]", "Uptake Lung, Mean / ID%/g": 0.76}
{"MOLECULE": "O=C([O-])CN1CCN(CC(=O)[O-])CCN(CC(=O)NCC2CCC(C(=O)NC(Cc3ccc4ccccc4c3)C(=O)NCCCCC(NC(=O)NC(CCC(=O)O)C(=O)O)C(=O)O)CC2)CCN(CC(=O)O)CC1.[68Ga+3] (stereo not shown) [[^68Ga]Ga-PSMA-617, reference compound]", "Uptake Lung, Mean / ID%/g": 0.95}
{"MOLECULE": "O=C([O-])CN1CCN(CC(=O)[O-])CCN(CC(=O)NCCCCC(=O)NC(Cc2cnc3ccccc3c2)C(=O)NCCCCC(NC(=O)NC(CCC(=O)O)C(=O)O)C(=O)O)CCN(CC(=O)O)CC1.[68Ga+3] (stereo not shown) [[^68Ga]Ga-PSMA-Q-1]", "Uptake Lung, Mean / ID%/g": 0.68}
{"MOLECULE": "O=C([O-])CN1CCN(CC(=O)[O-])CCN(CC(=O)NCc2ccc(C(=O)NC(Cc3cnc4ccccc4c3)C(=O)NCCCCC(NC(=O)NC(CCC(=O)O)C(=O)O)C(=O)O)cc2)CCN(CC(=O)O)CC1.[68Ga+3] (stereo not shown) [[^68Ga]Ga-PSMA-Q-3]", "Uptake Lung, Mean / ID%/g": 0.53}

###

Items are presented alongside their recorded Uptake Spleen, Mean.
Test system: 22Rv1 tumor-bearing mice
Test: Biodistribution in 22Rv1 tumor-bearing mice
Settings: 60 min p.i., 0.74 MBq, n = 3
Protocol: The animal studies were approved by the institutional animal care and use committee of the Chinese PLA General Hospital. Healthy male ICR mice were injected with either a novel radiotracer (37 MBq in 150 μL) or saline (150 μL) for the radiotoxicity evaluation. […] […] (10 min, 30 min, 60 min), tumors and interested organs were harvested, weighed and measured by a γ-counter, the results were expressed as the percentage of injected dose per gram (ID%/g). […]

{"MOLECULE": "O=C([O-])CN1CCN(CC(=O)[O-])CCN(CC(=O)NCCCCC(=O)NC(Cc2cnc3ccccc3c2)C(=O)NCCCCC(NC(=O)NC(CCC(=O)O)C(=O)O)C(=O)O)CCN(CC(=O)O)CC1.[68Ga+3] (stereo not shown) [[^68Ga]Ga-PSMA-Q-1]", "Uptake Spleen, Mean / ID%/g": 0.45}
{"MOLECULE": "O=C([O-])CN1CCN(CC(=O)[O-])CCN(CC(=O)NCc2ccc(C(=O)NC(Cc3cnc4ccccc4c3)C(=O)NCCCCC(NC(=O)NC(CCC(=O)O)C(=O)O)C(=O)O)cc2)CCN(CC(=O)O)CC1.[68Ga+3] (stereo not shown) [[^68Ga]Ga-PSMA-Q-3]", "Uptake Spleen, Mean / ID%/g": 0.59}
{"MOLECULE": "O=C([O-])CN1CCN(CC(=O)[O-])CCN(CC(=O)NCC2CCC(C(=O)NC(Cc3ccc4ccccc4c3)C(=O)NCCCCC(NC(=O)NC(CCC(=O)O)C(=O)O)C(=O)O)CC2)CCN(CC(=O)O)CC1.[68Ga+3] (stereo not shown) [[^68Ga]Ga-PSMA-617, reference compound]", "Uptake Spleen, Mean / ID%/g": 0.95}
{"MOLECULE": "O=C([O-])CN1CCN(CC(=O)[O-])CCN(CC(=O)NCCCCCC(=O)NC(Cc2cnc3ccccc3c2)C(=O)NCCCCC(NC(=O)NC(CCC(=O)O)C(=O)O)C(=O)O)CCN(CC(=O)O)CC1.[68Ga+3] (stereo not shown) [[^68Ga]Ga-PSMA-Q-2]", "Uptake Spleen, Mean / ID%/g": 1.05}
{"MOLECULE": "O=C([O-])CN1CCN(CC(=O)[O-])CCN(CC(=O)NCC2CCC(C(=O)NC(Cc3cnc4ccccc4c3)C(=O)NCCCCC(NC(=O)NC(CCC(=O)O)C(=O)O)C(=O)O)CC2)CCN(CC(=O)O)CC1.[68Ga+3] (stereo not shown) [[^68Ga]Ga-PSMA-Q]", "Uptake Spleen, Mean / ID%/g": 0.35}
{"MOLECULE": "O=C([O-])CN(CCN(CC(=O)[O-])Cc1cc(CCC(=O)NCCCCCC(=O)NCCCC[C@H](NC(=O)N[C@@H](CCC(=O)O)C(=O)O)C(=O)O)ccc1[O-])Cc1cc(CCC(=O)O)ccc1[O-].[68Ga+3].[OH3+] [[^68Ga]Ga-PSMA-11, reference compound]", "Uptake Spleen, Mean / ID%/g": 0.40}
{"MOLECULE": "O=C([O-])CN1CCN(CC(=O)[O-])CCN(CC(=O)NCC2CCC(C(=O)NC(Cc3ccncc3)C(=O)NCCCCC(NC(=O)NC(CCC(=O)O)C(=O)O)C(=O)O)CC2)CCN(CC(=O)O)CC1.[68Ga+3] (stereo not shown) [[^68Ga]Ga-PSMA-4PY]", "Uptake Spleen, Mean / ID%/g": 0.33}
